Target: αvβ3 receptor (Homo sapiens, UniProt P05106+P06756)
Construct: αvβ3 from human A375 cells was purified; endogenous in cells; host or cells: human A375 cells (receptor purified from the cells, analogous to Wong et al. 1996)
Sequence (P06756 31-889 limits assumed): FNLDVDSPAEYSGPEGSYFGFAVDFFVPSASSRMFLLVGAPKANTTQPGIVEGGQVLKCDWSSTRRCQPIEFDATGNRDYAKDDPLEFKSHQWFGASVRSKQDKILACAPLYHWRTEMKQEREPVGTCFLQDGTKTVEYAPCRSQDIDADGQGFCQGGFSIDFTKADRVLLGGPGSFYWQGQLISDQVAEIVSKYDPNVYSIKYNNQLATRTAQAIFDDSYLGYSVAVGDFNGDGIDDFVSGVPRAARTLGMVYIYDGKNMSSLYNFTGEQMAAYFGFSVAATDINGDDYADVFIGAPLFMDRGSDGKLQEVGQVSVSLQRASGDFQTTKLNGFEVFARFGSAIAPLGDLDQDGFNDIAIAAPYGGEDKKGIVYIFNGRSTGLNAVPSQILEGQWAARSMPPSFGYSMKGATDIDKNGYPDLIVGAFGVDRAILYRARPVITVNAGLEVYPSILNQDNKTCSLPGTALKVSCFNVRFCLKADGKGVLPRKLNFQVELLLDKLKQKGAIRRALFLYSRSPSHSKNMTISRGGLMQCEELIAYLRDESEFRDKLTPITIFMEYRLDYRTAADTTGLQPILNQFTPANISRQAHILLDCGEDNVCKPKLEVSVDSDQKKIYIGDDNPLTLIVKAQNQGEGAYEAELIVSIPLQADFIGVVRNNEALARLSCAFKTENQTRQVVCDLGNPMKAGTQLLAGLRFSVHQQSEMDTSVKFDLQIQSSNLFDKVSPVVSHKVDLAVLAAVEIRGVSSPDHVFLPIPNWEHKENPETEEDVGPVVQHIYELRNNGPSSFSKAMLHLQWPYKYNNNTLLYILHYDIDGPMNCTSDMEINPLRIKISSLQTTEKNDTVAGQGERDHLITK
Sequence (P06756 891-1048 partner limits assumed): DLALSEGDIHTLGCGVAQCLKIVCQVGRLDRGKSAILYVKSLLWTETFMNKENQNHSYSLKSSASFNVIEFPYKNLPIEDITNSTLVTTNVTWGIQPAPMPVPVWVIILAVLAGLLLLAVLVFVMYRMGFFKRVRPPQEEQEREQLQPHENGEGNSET
Sequence (P05106 27-788): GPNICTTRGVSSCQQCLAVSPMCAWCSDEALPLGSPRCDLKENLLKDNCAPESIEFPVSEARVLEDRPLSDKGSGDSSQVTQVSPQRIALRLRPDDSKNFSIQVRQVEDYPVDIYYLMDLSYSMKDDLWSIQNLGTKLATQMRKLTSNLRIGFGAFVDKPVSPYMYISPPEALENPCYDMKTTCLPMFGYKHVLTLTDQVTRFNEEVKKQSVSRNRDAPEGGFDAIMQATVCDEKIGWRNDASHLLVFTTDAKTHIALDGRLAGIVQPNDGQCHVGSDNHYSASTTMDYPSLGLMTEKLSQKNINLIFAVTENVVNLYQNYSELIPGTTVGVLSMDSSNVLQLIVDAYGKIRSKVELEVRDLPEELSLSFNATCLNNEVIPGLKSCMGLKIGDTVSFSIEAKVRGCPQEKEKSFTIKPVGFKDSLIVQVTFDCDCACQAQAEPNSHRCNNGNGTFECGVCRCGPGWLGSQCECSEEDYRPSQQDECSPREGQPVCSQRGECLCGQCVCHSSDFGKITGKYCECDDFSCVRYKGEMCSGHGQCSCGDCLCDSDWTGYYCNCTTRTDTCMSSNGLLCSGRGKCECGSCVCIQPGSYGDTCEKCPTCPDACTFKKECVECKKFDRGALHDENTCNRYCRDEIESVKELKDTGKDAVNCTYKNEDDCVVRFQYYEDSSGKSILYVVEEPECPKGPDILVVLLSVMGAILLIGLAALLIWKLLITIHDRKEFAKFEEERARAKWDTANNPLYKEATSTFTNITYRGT
Test: αvβ3 binding test (echistatin displacement, WGA SPA beads)
Settings: IC50 values of the binding to the αvβ3 receptor, αvβ3 from human A375 cells
*1 amine or outer side, *2 acyl side, *3 side chain or, on linkers, in order; H or OH if unused. Where a SMILES comes first, the peptide text is derived from it. [ ]: non-standard residue; d: D form. The star is where a group is joined. Camptothecin(20R,20-O) = CC[C@]1(O*)C(=O)OCc2c1cc1n(c2=O)Cc2cc3ccccc3nc2-1; X3 = O=C(Nc1cccc(-c2ccc(S(=O)(=O)*)cc2)c1)Nc1nc2ccccc2[nH]1; X1 = CCCNC(=O)Nc1cccc(S(=O)(=O)Nc2cccc(C(CC(=O)O)N*)c2)c1; NH(1,4-C6H4)NHCS = S=C(Nc1ccc(N[*:1])cc1)[*:2]; X4 = O=C(O)CC(N[*:1])c1cccc(NC(=S)[*:2])c1; CO = O=C([*:1])[*:2]
For each of the compounds below, state its IC50.
# value in nM; strip the unit string

Returns the measured IC50 for the input compound. Input: CCCNC(=O)Nc1cccc(S(=O)(=O)Nc2cccc(C(CC(=O)O)NC(=O)Nc3ccc(NC(=S)N4CCC[C@@H]4C(=O)N[C@@H](CC(C)C)C(=O)NCC(=O)N[C@H](CC(C)C)C(=O)N[C@H](CSC)C(=O)N[C@@H](C(=O)O[C@@]4(CC)C(=O)OCc5c4cc4n(c5=O)Cc5cc6ccccc6nc5-4)C(C)C)cc3)c2)c1 (stereo partly drawn) [Example 13] ({X1-CO}-[NH(1,4-C6H4)NHCS][dP]LG[dL][dC](Me)[dV]-{Camptothecin(20R,20-O)})
50

And then CCCNC(=O)Nc1cccc(S(=O)(=O)Nc2cccc(C(CC(=O)O)NC(=O)Nc3ccc(NC(=S)N4CCC[C@@H]4C(=O)N[C@@H](CC(C)C)C(=O)NCC(=O)N[C@H](CC(C)C)C(=O)N[C@H](CCCCN)C(=O)N[C@H](C(=O)O[C@@]4(CC)C(=O)OCc5c4cc4n(c5=O)Cc5cc6ccccc6nc5-4)C(C)C)cc3)c2)c1 (stereo partly drawn) [Example 20] ({X1-CO}-[NH(1,4-C6H4)NHCS][dP]LG[dL][dK]V-{Camptothecin(20R,20-O)}) , what is it?
50

Now give it for CC[C@]1(OC(=O)[C@H](NC(=O)[C@@H](Cc2c[nH]cn2)NC(=O)[C@@H](CC(C)C)NC(=O)CNC(=O)[C@H](CC(C)C)NC(=O)[C@H]2CCCN2C(=S)Nc2cccc(C(CC(=O)O)NS(=O)(=O)c3ccc(-c4cccc(NC(=O)Nc5nc6ccccc6[nH]5)c4)cc3)c2)C(C)C)C(=O)OCc2c1cc1n(c2=O)Cc2cc3ccccc3nc2-1 (stereo partly drawn) [Example 4] (X3-[X4][dP]LG[dL][dH][dV]-{Camptothecin(20R,20-O)}) too.
150
